# System: Aspergillus niger
# Assay explanation: Induction of Aspergillus niger DNA cleavage at 50 ug after 2 hr by agarose gel electrophoresis
Active and inactive are the calls of the source. The calls are words filed in the database; no cut-off is given here.
Assay metric: Activity

* Cc1ccc2oc(=O)cc(COc3cccc(OCc4cc(=O)oc5ccc(C)cc45)c3)c2c1 | inactive
* Cc1ccc2c(COc3cccc(O)c3)cc(=O)oc2c1 | inactive

* * *

# Tested on: Pseudomonas aeruginosa
# Assay explanation: Antibacterial activity against Pseudomonas aeruginosa MTCC 1034 after 24 hr by disk diffusion method
# Format: functional
# Test settings: Pseudomonas aeruginosa, MTCC 1034, 24 h
Exercise: for every item that follows, state its recorded MIC.
Record the value in µg/mL, omitting the unit from your answer.

// query MIC value for entry `O=c1cc(COc2cccc(OCc3cc(=O)oc4ccc(Cl)cc34)c2)c2cc(Cl)ccc2o1`
6.25

// query MIC value for entry `CCN(CC)c1cccc(OCc2cc(=O)oc3ccc(C)cc23)c1`
25

// query MIC value for entry `CC(=O)Nc1cccc(OCc2cc(=O)oc3ccc(Cl)cc23)c1`
6.25

// query MIC value for entry `O=c1cc(COc2cccc(O)c2)c2cc(Br)ccc2o1`
6.25

# credit: ChEMBL document CHEMBL3046568
